Assay: Steady-state pharmacokinetics
Format: in vivo
Details: human, plasma, oral, 30 mg
reported_endpoint: Tmax (h)
Your answer should be a plain number; it is taken to be in h.

QUERY: Field request: Tmax | item: CCc1ccc(CCOc2ccc(CC3SC(=O)NC3=O)cc2)nc1 (stereo not shown)
RESULT: 2

====

Experiment: Steady-state pharmacokinetics
Format: in vivo
Details: human, plasma, oral
reported_endpoint: Tmax (h)
API: value field is a number in h; no unit string.

QUERY: Report Tmax for CCc1ccc(CCOc2ccc(CC3SC(=O)NC3=O)cc2)nc1 (stereo not shown) please.
RESULT: 3
